- measured-target: binding between TBK1 and full-length Regnase-1 (FL_Reg1) (Homo sapiens, UniProt Q5D1E8)
- Construct: made in house; host or cells: Expi293 cells
- Sequence (Q5D1E8 whole entry): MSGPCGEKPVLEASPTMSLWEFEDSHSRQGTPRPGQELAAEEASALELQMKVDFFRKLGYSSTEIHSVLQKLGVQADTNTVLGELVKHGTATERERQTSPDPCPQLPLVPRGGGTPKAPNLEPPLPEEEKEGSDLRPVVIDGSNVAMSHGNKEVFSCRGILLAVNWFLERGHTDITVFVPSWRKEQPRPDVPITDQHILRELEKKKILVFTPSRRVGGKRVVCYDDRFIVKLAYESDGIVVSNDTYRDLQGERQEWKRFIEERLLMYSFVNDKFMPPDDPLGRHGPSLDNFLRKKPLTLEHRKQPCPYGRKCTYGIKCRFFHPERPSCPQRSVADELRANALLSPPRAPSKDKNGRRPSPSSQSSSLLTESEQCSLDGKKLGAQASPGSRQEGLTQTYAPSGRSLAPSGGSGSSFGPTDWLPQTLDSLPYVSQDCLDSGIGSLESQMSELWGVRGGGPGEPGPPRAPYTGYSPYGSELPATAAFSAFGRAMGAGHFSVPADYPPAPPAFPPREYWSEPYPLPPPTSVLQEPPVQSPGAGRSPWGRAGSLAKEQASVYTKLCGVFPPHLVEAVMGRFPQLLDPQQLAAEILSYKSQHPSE
- experimental-protocol: Inhibition of kinase-Regnase-1 binding by the compounds (AlphaScreen), TBK1
- setup-conditions: Table 12; 2.5 nM Regnase-1, 2.5 nM TBK1; AlphaScreen; read-out: 50% inhibition concentration, binding between Regnase-1 and TBK1, FL_Reg1
Residues, ends and D or L forms follow the SMILES beside them.
Quick list: pIC50 per entry.
Note on units: pIC50 is unitless, being -log10 of a concentration expressed in mol/L.

>  <compound>
CC[C@H](C)[C@@H]1NC(=O)[C@H](CC(N)=O)NC(=O)[C@H](Cc2ccc(O)cc2)NC(=O)[C@H](Cc2c[nH]c3ccccc23)NC(=O)[C@H](CO)NC(=O)[C@H](CC(N)=O)NC(=O)[C@H](C)NC(=O)[C@H](Cc2ccc(O)cc2)NC(=O)CNC(=O)[C@H](C)N(C)C(=O)C[C@@H](C(=O)N2CCCC2)NC(=O)[C@H](Cc2c[nH]c3ccccc23)NC1=O [PP2] (HELM PEPTIDE1{[meA].G.Y.A.N.S.W.Y.N.I.W.D.[C1CCN([*:1])C1]}$PEPTIDE1,PEPTIDE1,1:R1-12:R3$$$V2.0)

>  <measured-target>
binding between TBK1 and full-length Regnase-1 (FL_Reg1) (Homo sapiens, UniProt Q5D1E8)

>  <pIC50>
4.81

$$$$

Next, consider the following compound.
Prompt: Would you kindly share the measured pIC50 for CC[C@H](C)[C@@H]1NC(=O)[C@H](CCCCN)NC(=O)[C@H](Cc2ccccc2)NC(=O)[C@H](Cc2c[nH]c3ccccc23)NC(=O)[C@H](CO)NC(=O)[C@H](CO)NC(=O)[C@H](CC(N)=O)NC(=O)[C@@H]2CCCN2C(=O)[C@@H](C)N(C)C(=O)C[C@@H](C(=O)N2CCCC2)NC(=O)[C@H](Cc2c[nH]c3ccccc23)NC1=O [PP6] (HELM PEPTIDE1{[C[C@H](C(=O)[*:2])N(C)[*:1]].P.N.S.S.W.F.K.I.W.D.[C1CCN([*:1])C1]}$PEPTIDE1,PEPTIDE1,1:R1-11:R3$$$V2.0) ?
Response: 4.72
